- assay remarks: in vitro
- settings: both, human, plasma, Fraction Unbound (fu), individual replicates A, B, C of the UC run named in c8
measured parameter: fraction unbound
Numbers only.

Worked cases, fraction unbound given:
1. FC(F)(Br)C(F)(F)C(F)(F)C(F)(F)C(F)(F)C(F)(F)Br ... 0.00424
2. OCCC(F)(F)C(F)(F)C(F)(F)C(F)(F)F ... 0.206

// query What does the data say about its fraction unbound? Entry: FC(F)(I)C(F)(F)C(F)(F)C(F)(F)C(F)(F)C(F)(F)I
// result 0.0161

---

Would you kindly list % remaining_PPB for each of these compounds?
- Tested on: human plasma
- settings: human, plasma

Reference set, count: 3
1) C=C(C)C(=O)OCC(F)(F)C(F)(F)C(F)(F)C(F)(F)C(F)(F)C(F)(F)C(F)(F)F [1H,1H-Perfluorooctyl methacrylate] ... 49%
2) C=C(C)C(=O)OCCC(F)(F)C(F)(F)C(F)(F)C(F)(F)C(F)(F)C(F)(F)C(F)(F)C(F)(F)F [8:2 Fluorotelomer methacrylate] ... 66%
3) C=C(C)C(=O)OCC(F)(F)C(F)(F)C(F)(F)F [1H,1H-Perfluorobutyl methacrylate] ... 8%

Switching to the query record.
// query Please give the measured % remaining_PPB for this compound: C=CC(=O)OCCC(F)(F)C(F)(F)C(F)(F)C(F)(F)C(F)(F)C(F)(F)C(F)(F)C(F)(F)F [8:2 Fluorotelomer acrylate]
// result 0%

---

Provide the reported % remaining_PPB of each item.
- Tested on: human plasma
- assay remarks: Chemical stability in plasma over the UC assay time course (T5hr/T1hr)
- settings: chemical remaining in plasma over the PPB assay time course; NS = no significant loss
One number for each entry, in %.

A selection of reference data follows.
1) NCC(F)(F)C(F)(F)C(F)(F)C(F)(F)C(F)(F)C(F)(F)F ... 54
2) C=CC(=O)OCC(F)(F)C(F)(F)C(F)(F)C(F)(F)C(F)(F)C(F)(F)C(F)(F)F [1H,1H-Perfluorooctyl acrylate] ... 6
3) OCC(F)(F)C(F)(F)C(F)(F)C(F)(F)C(F)(F)C(F)(F)C(F)(F)C(F)(F)C(F)(F)C(F)(F)C(F)(F)F ... 100
4) FC(F)(Br)C(F)(F)C(F)(F)C(F)(F)C(F)(F)C(F)(F)Br ... 40
5) C=CC(=O)OCC(F)(F)C(F)(F)C(F)(F)C(F)(F)COC(=O)C=C ... 0

The record that follows has no % remaining_PPB shown yet.
// query Please report the recorded % remaining_PPB for C=C(C)C(=O)OCCC(F)(F)C(F)(F)C(F)(F)C(F)(F)C(F)(C(F)(F)F)C(F)(F)F .
// result 63.6

---

- Test system: human plasma
- settings: both, human, 5 h, 10 μM
measured parameter: Stability (T5hr/ T1hr), Run-specific Avg
One number for each entry.

1) OCC(F)(F)OC(F)(F)C(F)(F)OC(F)(F)CO ... 1.023
2) NC(=O)C(F)(F)C(F)(F)F [Pentafluoropropionamide] ... 0.719
3) OCC(F)(F)OC(F)(F)C(F)(F)OC(F)(F)C(F)(F)OC(F)(F)CO ... 0.998

Now consider a different molecule.
// query Query: Stability (T5hr/ T1hr), Run-specific Avg; subject: COC(=O)C(F)(F)C(F)(F)OC(F)(C(F)(F)F)C(F)(F)OC(F)=C(F)F (stereo not shown)
// result 0.726

The measured values listed here are drawn from paper PMC10223284.
